Cited source: PubChem BioAssay (Tox21)

- assayed-system: Nuclear receptor ROR-gamma (Homo sapiens) (UniProt P51449)
- measurement-protocol: qHTS assay to identify small molecule antagonists of the retinoid-related orphan receptor gamma (ROR-gamma) signaling pathway (AID 1159521; also: nearly all actives have a fitted effect of over 50% in size)
- measurement-context: Tet-on RORgamma CHO cells, RORE-luciferase, 16 h; series mostly up to 92.4 µM
Inconclusive results are not listed. The source made the active and inactive calls. Calls follow the shape of the dose curve; as a rule, active = well fitted inhibition curve with a large enough effect in the repeat runs; inconclusive = weak or mixed curves, or effect the other way; inactive = no such curve, though single readings can be large or run the other way.
Use one of these outcomes when replying: active, inactive

{"compound": "O=C(O)COCCN1CCN(C(c2ccccc2)c2ccc(Cl)cc2)CC1 (stereo unspecified)", "assigned-label": "inactive"}
{"compound": "CC(=O)Nc1ccc2c(c1)Cc1cc(NC(C)=O)ccc1-2", "assigned-label": "inactive"}
{"compound": "C[C@]12CC[C@@H]3c4ccc(O)cc4CC[C@H]3[C@@H]1CC[C@H]2O", "assigned-label": "active"}
{"compound": "CC(=O)OC(C)C", "assigned-label": "inactive"}
{"compound": "c1ccc2c(c1)ccc1cc3c(ccc4ccccc43)cc12", "assigned-label": "inactive"}

Now examine the next entry.
Inquiry: Per the records of this test, what outcome belongs to Cc1ccc(S(=O)(=O)NCl)cc1 ?
Reply text: inactive
